# Tested on: IEC-6 rat intestinal epithelial cell line
# EXPERIMENT_NOTES: Cell viability assay in IEC-6 cells (resazurin), potential toxicity to non-cancerous cells
# Format: cell-based
# COND: Protocol A: 3000 cells per well, 96 hrs incubation with test compound, read-out: Protocol A IC50 (μM), cell viability in IEC-6 cells
MEASURED_METRIC: IC50 (µM)
Numbers only, in µM.

// solved cases for IC50 follow
| SMILES_DATA | IC50 / µM |
| --- | --- |
| CCNC(=O)c1cc2c(-c3cc(C(C)(C)O)ccc3Oc3ccc(Cl)cc3Cl)cn(C)c(=O)c2s1 | 0.061 |
| CCS(=O)(=O)Nc1ccc(Oc2c(C)cccc2C)c(-c2cn(C)c(=O)c3sc(-c4nnc(C)o4)cc23)c1 | 0.048 |
| CCNC(=O)c1cc2c(-c3cc(C(C)(C)O)ccc3Oc3ccc(F)cc3F)cn(C)c(=O)c2s1 | 0.089 |
| Cc1noc(-c2cc3c(-c4cc(C(C)(C)O)ccc4Oc4ccc(F)cc4F)cn(C)c(=O)c3s2)n1 | 0.156 |

Now for the compound whose IC50 we want.
Recorded IC50 for `CCNC(=O)c1cc2c(-c3cc(C(C)(C)O)ccc3Oc3c(C)cc(F)cc3C)cn(C)c(=O)c2s1` , please?
0.266

====

# TARGET_DESC: BRD4-2 (Homo sapiens (Human))
# EXPERIMENT_NOTES: Bromodomain and Extraterminal Domain (BET) binding assay, BRD4-2
# COND: histone H4 peptide (1-21) K5/8/12/16Ac-biotin ligand; 130 nM protein, 70 nM ligand
Exercise: state measured pIC50 for each of the compounds provided.
One number for each entry, as −log10 of the molar value.

| SMILES_DATA | pIC50 |
| --- | --- |
| C=C(C)c1ccc(Oc2c(C)cc(F)cc2C)c(-c2cn(C)c(=O)c3sc(C(=O)NCC)cc23)c1 | 6.99 |

# per-item lookup of pIC50; items listed below
1. Cc1nnc(-c2cc3c(-c4cc(C(C)(C)O)ccc4Oc4ccc(F)cc4F)cn(C)c(=O)c3s2)o1
2. CCS(=O)(=O)Nc1ccc(Oc2ccc(F)cc2F)c(-c2cn(C)c(=O)c3sc(-c4nc5ccccc5o4)cc23)c1
3. Cn1cc(-c2cc(C(C)(C)O)ccc2Oc2ccc(F)cc2F)c2cc(C(=O)N3CCC(F)(F)C3)sc2c1=O

1: 7.90; 2: 6.71; 3: 7.77

====

Could you please report measured IC50 for the items listed next?
# TARGET_DESC: BRD4-1 (Homo sapiens (Human), UniProt O60885)
# EXPERIMENT_NOTES: Bromodomain and Extraterminal Domain (BET) binding assay, BRD4-1
# COND: histone H4 peptide (1-21) K5/8/12/16Ac-biotin ligand; 20 nM protein, 20 nM ligand
One number for each entry, in nM.

// solved cases for IC50 follow
| MOLECULE | UNIT_OF_MEASURE | IC50 |
| --- | --- | --- |
| Cc1noc(-c2cc3c(-c4cc(C(C)(C)O)ccc4Oc4ccc(F)cc4F)cn(C)c(=O)c3s2)n1 [Compound 8] | nM | 94 |
| CCNC(=O)c1cc2c(-c3cc(NS(=O)(=O)CC)ccc3Oc3c(C)cccc3C)cn(C)c(=O)c2s1 [Compound 147] | nM | 299 |
| CCNC(=O)c1cc2c(=O)n(C)cc(-c3cc(C(C)(C)O)ccc3Oc3c(C)cc(F)cc3C)c2s1 [Compound 146] | nM | 2920 |
| Cc1cc(F)cc(C)c1Oc1ccc(C(C)(C)O)cc1-c1cn(C)c(=O)c2sc(C(=O)Nc3ccccc3)cc12 [Compound 151] | nM | 9380 |
| CCNC(=O)c1cc2c(-c3cc(C(C)(C)O)ccc3Oc3c(C)cc(F)cc3C)cn(C)c(=O)c2s1 [Compound 1] | nM | 10100 |
| CNC(=O)c1cc2c(-c3cc(C(C)(C)O)ccc3Oc3c(C)cc(F)cc3C)cn(C)c(=O)c2s1 [Compound 150] | nM | 3600 |
| Cc1cc(F)cc(C)c1Oc1ccc(C(C)(C)O)cc1-c1cn(C)c(=O)c2ccsc12 [Compound 2.1] | nM | 2500 |
| Cn1cc(-c2cc(C(C)(C)O)ccc2Oc2ccc(F)cc2F)c2cc(C(=O)N3CCCC(F)(F)C3)sc2c1=O [Compound 23] | nM | 1120 |
| CCS(=O)(=O)Nc1ccc(Oc2ccc(F)cc2F)c(-c2cn(C)c(=O)c3sc(-c4nc5ccccc5o4)cc23)c1 [Compound 158] | nM | 103 |
| Cc1nnc(-c2cc3c(-c4cc(C(C)(C)O)ccc4Oc4ccc(F)cc4F)cn(C)c(=O)c3s2)o1 [Compound 12] | nM | 17 |

Take each entry in turn and give its IC50.
1. Cn1cc(-c2cc(C(C)(C)O)ccc2Oc2ccc(F)cc2F)c2cc(C(=O)NCC(F)(F)F)sc2c1=O [Compound 5]
2. Cc1nnc(-c2cc3c(-c4cc(C(C)(C)O)ccc4Oc4c(C)cc(F)cc4C)cn(C)c(=O)c3s2)o1 [Compound 13]
3. CCS(=O)(=O)Nc1ccc(Oc2c(C)cc(F)cc2C)c(-c2cn(C)c(=O)c3sc(-c4nnc(C)o4)cc23)c1 [Compound 10]

1: 744; 2: 4940; 3: 111

====

# TARGET_DESC: BRD4-2 (Homo sapiens (Human), UniProt O60885)
# EXPERIMENT_NOTES: Bromodomain and Extraterminal Domain (BET) binding assay, BRD4-2
# COND: histone H4 peptide (1-21) K5/8/12/16Ac-biotin ligand; 130 nM protein, 70 nM ligand
Give measured pIC50 for each item. Keep answers brief.
Numbers only, as −log10 of the molar value.

| MOLECULE | pIC50 |
| --- | --- |
| CCNC(=O)c1cc2c(=O)n(C)cc(-c3cc(C(C)(C)O)ccc3Oc3ccc(F)cc3F)c2s1 [Compound 159] | 8.77 |
| Cc1cc(F)cc(C)c1Oc1ccc(C(C)(C)O)cc1-c1cn(C)c(=O)c2sc(C(=O)NCc3ccccc3)cc12 [Compound 149] | 6.99 |
| Cn1cc(-c2cc(C(C)(C)O)ccc2Oc2ccc(F)cc2F)c2cc(C(=O)NC3(C(F)(F)F)CC3)sc2c1=O [Compound 14] | 7.33 |
| CCNC(=O)c1cc2c(=O)n(C)cc(-c3cc(C(C)(C)O)ccc3Oc3c(C)cc(F)cc3C)c2s1 [Compound 146] | 8.70 |
| CCNC(=O)c1cc2c(-c3cc(C(C)(C)O)ccc3Oc3ccc(Cl)cc3Cl)cn(C)c(=O)c2s1 [Compound 2] | 9.00 |
| CNC(=O)c1cc2c(-c3cc(C(C)(C)O)ccc3Oc3c(C)cc(F)cc3C)cn(C)c(=O)c2s1 [Compound 150] | 8.92 |
| CCS(=O)(=O)Nc1ccc(Oc2ccc(F)cc2F)c(-c2cn(C)c(=O)c3ccsc23)c1 [Compound 2.91] | 8.14 |
| Cc1cc(F)cc(C)c1Oc1ccc(C(C)(C)O)cc1-c1cn(C)c(=O)c2sc(C(=O)Nc3ccccc3)cc12 [Compound 151] | 8.49 |
| CCNC(=O)c1cc2c(-c3cc(C(C)(C)O)ccc3Oc3c(C)cc(F)cc3C)cn(C)c(=O)c2s1 [Compound 1] | 8.70 |
| Cn1cc(-c2cc(C(C)(C)O)ccc2Oc2ccc(F)cc2F)c2cc(C(=O)N3CCCC(F)(F)C3)sc2c1=O [Compound 23] | 7.74 |

Each molecule below has a recorded value; state its pIC50.
1. CCNC(=O)c1cc2c(-c3cc(NS(=O)(=O)CC)ccc3Oc3c(C)cccc3C)cn(C)c(=O)c2s1 [Compound 147]
2. Cn1cc(-c2cc(C(C)(C)O)ccc2Oc2ccc(F)cc2F)c2cc(C(=O)N3CCCCC3)sc2c1=O [Compound 6]
3. Cc1cc(F)cc(C)c1Oc1ccc(C(C)(C)O)cc1-c1cn(C)c(=O)c2ccsc12 [Compound 2.1]
4. Cn1cc(-c2cc(C(C)(C)O)ccc2Oc2ccc(F)cc2F)c2cc(C(=O)NC3CC3)sc2c1=O [Compound 145]
5. Cc1nnc(-c2cc3c(-c4cc(C(C)(C)O)ccc4Oc4c(C)cc(F)cc4C)cn(C)c(=O)c3s2)[nH]1 [Compound 152]
6. Cn1cc(-c2cc(C(C)(C)O)ccc2Oc2ccc(F)cc2F)c2sccc2c1=O [Compound 2.3]

1: 8.74; 2: 7.49; 3: 7.70; 4: 8.15; 5: 8.05; 6: 7.55

Would you be so kind as to report pIC50 for each listed record?
1. CCS(=O)(=O)Nc1ccc(Oc2c(C)cc(F)cc2C)c(-c2cn(C)c(=O)c3sc(-c4nc5ccccc5[nH]4)cc23)c1 [Compound 157]
2. Cc1cc(F)cc(C)c1Oc1ccc(C(C)(C)O)cc1-c1cn(C)c(=O)c2sc(-c3nc4ccccc4[nH]3)cc12 [Compound 154]

[6.84, 6.55]
